The origin of these recorded values is paper PMC2947195.

target: S313A hRFC (Homo sapiens, UniProt P41440, S313A); assay: Competitive inhibition of [3H]MTX uptake; assay type: cell-based
pKi: −log10 of the molar value.
Recorded Metric: pKi

These solved cases illustrate the format of a correct answer.
{"Compound": "C#CCN(Cc1cc2c(=O)[nH]c(C)nc2cc1C)c1ccc(C(=O)N[C@@H](CCc2nnn[nH]2)C(=O)O)c(F)c1", "pKi": 5.53}
{"Compound": "Nc1nc(N)c2nc(CNc3ccc(C(=O)N[C@@H](CCC(=O)O)C(=O)O)cc3)cnc2n1", "pKi": 5.46}

[1] Nc1nc(=O)c2nc(CNc3ccc(C(=O)N[C@@H](CCC(=O)O)C(=O)O)cc3)cnc2[nH]1
[2] CCC(Cc1cnc2nc(N)nc(N)c2n1)c1ccc(C(=O)N[C@@H](CCC(=O)O)C(=O)O)cc1 (stereo partly drawn) [Edatrexate, 10-ethyl-10-deazaaminopterin]
[3] Cc1nc2ccc3ccc(CNc4ccc5c(c4)CN([C@@H](CCC(=O)O)C(=O)O)C5=O)cc3c2c(=O)[nH]1
[4] Nc1nc2c(c(=O)[nH]1)N(C=O)C(CNc1ccc(C(=O)N[C@@H](CCC(=O)O)C(=O)O)cc1)CN2 (stereo partly drawn) [Leucovorin, (6R,S)-5-formyl tetrahydrofolate]
Sort low-to-high on pKi, please. List labels; respect the requested ordering. 1, 4, 2, 3

* * *

target: wt hRFC (Homo sapiens, UniProt P41440); test: Competitive inhibition of [3H]MTX uptake; type: cell-based
Recorded Metric: Ki (µM)

{"Molecule": "Nc1nc(N)c2nc(CNc3ccc(C(=O)N[C@@H](CCC(=O)O)C(=O)O)cc3)cnc2n1", "Recorded Metric": "Ki", "Experimental Value": 7.03}

[I] Nc1nc(=O)c2nc(CNc3ccc(C(=O)N[C@@H](CCC(=O)O)C(=O)O)cc3)cnc2[nH]1
[II] Nc1nc2c(c(=O)[nH]1)N(C=O)C(CNc1ccc(C(=O)N[C@@H](CCC(=O)O)C(=O)O)cc1)CN2 (stereo partly drawn) [Leucovorin, (6R,S)-5-formyl tetrahydrofolate]
Between I and II , which one shows the larger Ki value? Lab log: write the label of the selected item as the result. I
(I: 194 µM, II: 18.7 µM)

* * *

biological target: S313T hRFC (Homo sapiens, UniProt P41440, S313T); experiment: Competitive inhibition of [3H]MTX uptake; format: cell-based; settings: S313T hRFC; inhibition of [3H]MTX (1 μM) uptake, Dixon plots; mean±S.E.M., n=3
Recorded Metric: Ki (µM)
Provide the reading as a plain figure in µM.

Notebook: Nc1nc(N)c2nc(CNc3ccc(C(=O)N[C@@H](CCCNC(=O)c4ccccc4C(=O)O)C(=O)O)cc3)cnc2n1 , Ki read as 2.86

* * *

Molecular target: UniProt:P41440
Sequence (P41440 1-591): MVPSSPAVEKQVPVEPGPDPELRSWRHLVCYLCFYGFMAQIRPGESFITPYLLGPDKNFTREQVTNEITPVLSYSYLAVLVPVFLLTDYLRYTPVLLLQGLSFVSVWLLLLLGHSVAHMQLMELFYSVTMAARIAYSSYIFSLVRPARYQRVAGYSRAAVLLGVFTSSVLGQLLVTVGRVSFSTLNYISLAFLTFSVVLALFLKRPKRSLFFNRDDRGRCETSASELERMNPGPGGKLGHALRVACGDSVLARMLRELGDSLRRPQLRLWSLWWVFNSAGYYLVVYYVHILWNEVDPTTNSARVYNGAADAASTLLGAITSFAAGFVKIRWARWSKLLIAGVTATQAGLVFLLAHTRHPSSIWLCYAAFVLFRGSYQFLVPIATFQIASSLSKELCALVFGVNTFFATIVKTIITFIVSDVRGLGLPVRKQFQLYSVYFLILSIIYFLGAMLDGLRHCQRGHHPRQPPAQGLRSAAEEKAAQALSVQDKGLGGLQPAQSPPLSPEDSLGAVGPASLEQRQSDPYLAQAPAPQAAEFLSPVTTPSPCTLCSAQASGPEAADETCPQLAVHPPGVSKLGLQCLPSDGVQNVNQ
Experiment: Competitive inhibition of [3H]MTX uptake
Type: cell-based
Conditions: wt hRFC; inhibition of [3H]MTX (1 μM) uptake, Dixon plots; mean±S.E.M., n=3
Recorded Metric: Ki (µM)
Return type: number; implicit unit µM.

For Nc1nc(N)c2nc(CNc3ccc(C(=O)N[C@@H](CCCNC(=O)c4ccccc4C(=O)O)C(=O)O)cc3)cnc2n1 [PT523] the compound record lists Ki as 4.56

* * *

molecular target: wt hRFC (Homo sapiens, UniProt P41440); assay: Competitive inhibition of [3H]MTX uptake; assay type: cell-based
pKi: −log10 of the molar value.
Recorded Metric: pKi

{"Compound": "C#CCN(Cc1cc2c(=O)[nH]c(C)nc2cc1C)c1ccc(C(=O)N[C@@H](CCc2nnn[nH]2)C(=O)O)c(F)c1", "pKi": 5.35}

[P] Cc1nc2ccc3ccc(CNc4ccc5c(c4)CN([C@@H](CCC(=O)O)C(=O)O)C5=O)cc3c2c(=O)[nH]1
[Q] CCC(Cc1cnc2nc(N)nc(N)c2n1)c1ccc(C(=O)N[C@@H](CCC(=O)O)C(=O)O)cc1 (stereo partly drawn) [Edatrexate, 10-ethyl-10-deazaaminopterin]
For the pair P and Q , which entry has the numerically smaller recorded pKi? // respond with label for picked entry Q
(Q: 5.26, P: 5.68)

* * *

molecular target: S313A hRFC (Homo sapiens, UniProt P41440, S313A); assay: Competitive inhibition of [3H]MTX uptake; type: cell-based; conditions: S313A hRFC; inhibition of [3H]MTX (1 μM) uptake, Dixon plots; mean±S.E.M., n=3
Recorded Metric: Ki (µM)
Give a bare numeral; the unit µM is implied.

GET /value?item= Nc1nc(N)c2nc(CNc3ccc(C(=O)N[C@@H](CCCNC(=O)c4ccccc4C(=O)O)C(=O)O)cc3)cnc2n1 [PT523] &field=Ki returns 3.13

* * *

target: S313T hRFC (Homo sapiens, UniProt P41440, S313T); assay: Competitive inhibition of [3H]MTX uptake; type: cell-based
Recorded Metric: Ki (nM)

{"Compound": "Nc1nc(=O)c2nc(CNc3ccc(C(=O)N[C@@H](CCC(=O)O)C(=O)O)cc3)cnc2[nH]1 [Folic acid, folic acid]", "Assayed Target": "S313T hRFC (Homo sapiens, UniProt P41440, S313T)", "Recorded Metric": "Ki", "Measurement Units": "nM", "Experimental Value": 237000}
{"Compound": "CCC(Cc1cnc2nc(N)nc(N)c2n1)c1ccc(C(=O)N[C@@H](CCC(=O)O)C(=O)O)cc1 (stereo partly drawn) [Edatrexate, 10-ethyl-10-deazaaminopterin]", "Assayed Target": "S313T hRFC (Homo sapiens, UniProt P41440, S313T)", "Recorded Metric": "Ki", "Measurement Units": "nM", "Experimental Value": 2230}
{"Compound": "C#CCN(Cc1cc2c(=O)[nH]c(C)nc2cc1C)c1ccc(C(=O)N[C@@H](CCc2nnn[nH]2)C(=O)O)c(F)c1 [ZD9331]", "Assayed Target": "S313T hRFC (Homo sapiens, UniProt P41440, S313T)", "Recorded Metric": "Ki", "Measurement Units": "nM", "Experimental Value": 2310}

[1] Nc1nc2c(c(=O)[nH]1)N(C=O)C(CNc1ccc(C(=O)N[C@@H](CCC(=O)O)C(=O)O)cc1)CN2 (stereo partly drawn) [Leucovorin, (6R,S)-5-formyl tetrahydrofolate]
[2] Nc1nc(N)c2nc(CNc3ccc(C(=O)N[C@@H](CCC(=O)O)C(=O)O)cc3)cnc2n1 [Aminopterin, aminopterin]
[3] Cc1nc2ccc3ccc(CNc4ccc5c(c4)CN([C@@H](CCC(=O)O)C(=O)O)C5=O)cc3c2c(=O)[nH]1 [GW1843U89]
Please give the order of these compounds when sorted by Ki, largest value leading. Form entry: ranked labels (order as requested). 1, 2, 3
(1: 7740 nM, 2: 2750 nM, 3: 750 nM)
